- Test system: MS2 coat protein
- protocol: apparent KD of MS2 coat protein; higher = weaker reporter binding
- condition-details: Eterna round: R107; input ligand: theophylline 20 uM
quantity-kind: apparent KD of MS2 coat protein
Include the unit after the number when you answer.

A selection of reference data follows.
biopolymer-sequence	apparent KD of MS2 coat protein
UUGAACAUGAGGAUCACCCAUGUGGAUGAUACCAGCUAAAACAUAAGCCCUUGGCAGCAUUAAAAUGAAAUAUCGAAAAGGAAAG [theeternabot_sameState_MS2_Theo_A_1]	179 nM
UGUAUGUGAUCUGAUACCAGUCCAACUGGUAAAACAUGAGGAUCACCCAUGUAAAAUUGGGACCCUUGGCAGCAGAUCGCAUACU [ThBS 2]	418 nM
UCGCUAUUGUCGGCCGCCACUACUGCAGGGAAACAAAUAUAACCACAUGAGGAUCACCCAUGUCUUAGGACCGGGACACCCAUCU [theeternabot_sameState_MS2_Trp_B_2]	126 nM
UGCCGAGACGUGGAUUACCCAUGUACCGAAGGAGCGCCCGAAAGGGCAGGUAGGUCGCGGAGGACAUGAGGAUCACCCAUGUCGA	127 nM
AAAAUCCUACCUGAGGAUCACCCAGGUGAAGGAGCGCCCGAAAGGGCAGGUAGGUCGCACCUGAGGAUCACCCUGGUACCUAAAA [ArgAX 27 #DoubleMs2 #OpenEnded #AlternativeMS2]	85.8 nM

Prompt: // query apparent KD of MS2 coat protein value for entry UGUCAUGGAAACAUGACAGGUCUUACCGGUCGAGGACCGGUACGGCCGCCACUCGAUUGGUGGCACAUGAGGAUCACCCAUGUUA [SS Tryp A #16]
Response: 47.3 nM
